- system.name: EPH-A4 (Homo sapiens, UniProt P54764)
- Sequence (P54764 20-986, species assumed): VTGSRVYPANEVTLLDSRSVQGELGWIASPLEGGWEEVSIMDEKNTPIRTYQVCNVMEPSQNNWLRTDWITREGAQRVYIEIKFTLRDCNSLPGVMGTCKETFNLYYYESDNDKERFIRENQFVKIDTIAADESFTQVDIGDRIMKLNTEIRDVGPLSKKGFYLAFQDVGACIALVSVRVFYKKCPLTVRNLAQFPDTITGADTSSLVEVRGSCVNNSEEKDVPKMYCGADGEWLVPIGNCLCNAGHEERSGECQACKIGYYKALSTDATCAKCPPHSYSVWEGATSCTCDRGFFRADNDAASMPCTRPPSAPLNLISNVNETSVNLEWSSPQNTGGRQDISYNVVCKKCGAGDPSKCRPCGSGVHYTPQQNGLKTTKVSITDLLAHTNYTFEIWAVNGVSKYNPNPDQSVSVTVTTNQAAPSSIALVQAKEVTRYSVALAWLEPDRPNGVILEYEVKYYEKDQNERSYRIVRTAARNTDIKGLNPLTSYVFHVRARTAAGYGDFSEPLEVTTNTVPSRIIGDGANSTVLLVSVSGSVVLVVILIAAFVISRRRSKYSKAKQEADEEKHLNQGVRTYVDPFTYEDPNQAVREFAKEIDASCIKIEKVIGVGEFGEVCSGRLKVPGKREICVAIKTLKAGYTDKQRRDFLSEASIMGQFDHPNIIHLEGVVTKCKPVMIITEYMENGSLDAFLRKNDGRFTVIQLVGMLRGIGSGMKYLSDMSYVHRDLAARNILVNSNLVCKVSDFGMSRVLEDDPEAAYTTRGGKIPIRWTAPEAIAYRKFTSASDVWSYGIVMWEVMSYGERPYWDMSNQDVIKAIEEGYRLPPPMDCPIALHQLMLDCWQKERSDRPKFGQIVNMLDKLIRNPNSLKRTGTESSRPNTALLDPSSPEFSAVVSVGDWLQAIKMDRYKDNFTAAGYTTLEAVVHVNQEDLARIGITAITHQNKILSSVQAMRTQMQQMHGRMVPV
- protocol.summary: Kinase profiling EPH-A4
- Type: biochemical
- condition.parameters: 100 micromolar inhibitor concentration; 100 is no change; read-out: residual kinase activity, EPH-A4
- From the text: Any value less that 25 is considered to be highly significant inhibition.

structure.smiles.string: CC(=O)Nc1nc2cc(F)ccc2s1
remaining activity at 100 µM: 100%
--
structure.smiles.string: COc1ccc2sc(NC(C)=O)nc2c1
remaining activity at 100 µM: 98%
--
structure.smiles.string: CC(=O)Nc1nc2cc(C(F)(F)F)ccc2s1
remaining activity at 100 µM: 103%
--
structure.smiles.string: CC(=O)Nc1nc2ccc(C(F)(F)F)cc2s1
remaining activity at 100 µM: 45%
--
structure.smiles.string: CC(=O)Nc1nc2ccc(C#N)cc2s1
remaining activity at 100 µM: 62%
--
structure.smiles.string: CC(=O)Nc1nc2ccc(O)cc2s1
remaining activity at 100 µM: 77%

Recorded values, source patent US10231954B2.
